Hey, just so you know, these numbers are from the RNAGym collection of RNA variant scans (doi:10.1073/pnas.2313332121).

B1: TPR 5TU (parent)
chain: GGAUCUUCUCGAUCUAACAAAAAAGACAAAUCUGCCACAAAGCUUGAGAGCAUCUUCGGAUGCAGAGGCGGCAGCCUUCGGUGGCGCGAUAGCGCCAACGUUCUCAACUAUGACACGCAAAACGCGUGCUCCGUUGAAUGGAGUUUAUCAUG

Variants of: B1
Assay: polymerase ribozyme fitness, log enrichment relative to wild type (log ratio); higher = more active; in vitro selection for triplet polymerase activity
This sample holds only a part of the variants without activity.
ENDPOINT: polymerase ribozyme fitness (log ratio)

mutant_name="A20G A30U C95U" endpoint_result=-3.5
mutant_name="G65C C99G" endpoint_result="≤ -4.2"
mutant_name="C27G G65A" endpoint_result="≤ -4.2"
mutant_name="C57U C96G U130A" endpoint_result=-3.15
mutant_name="A26U U104C G124C" endpoint_result=-3.3
mutant_name="G83A C105A" endpoint_result=-3.15
mutant_name="C14G U127G" endpoint_result=-4.18
mutant_name="A29C G59A G94U U102A A106G G141A" endpoint_result="≤ -4.2"
mutant_name="A64U U148G" endpoint_result="≤ -4.2"
mutant_name="G67C G92A C96U C118U" endpoint_result="≤ -4.2"
mutant_name="A21G A24C U31C C69G U148C" endpoint_result="≤ -4.2"
mutant_name="C27U A29C G58C C85A U145A" endpoint_result="≤ -4.2"
mutant_name="C96A U151C" endpoint_result=-3.24
mutant_name="C5U G84U U148G" endpoint_result="≤ -4.2"
mutant_name="U7G G50C C87G C125U G133A G140A A142U" endpoint_result="≤ -4.2"
mutant_name="C14G G25C A47U G50A C93A U102A G124C" endpoint_result="≤ -4.2"
mutant_name="A29U U134A" endpoint_result="≤ -4.2"
mutant_name="U4G G48A G88C C123U U134G A137C" endpoint_result="≤ -4.2"
mutant_name="U33A A41C C87A U130G A147G" endpoint_result="≤ -4.2"
mutant_name="G74A G84A A89G" endpoint_result="≤ -4.2"
mutant_name="U61A G86A A122G" endpoint_result=-2.67
mutant_name="G25U U55A C85A G140C" endpoint_result="≤ -4.2"
